Readings of MIC for the listed molecules
- Tested on: P. aeruginosa PAO1
- Protocol Description: Broth microdilution MIC, P. aeruginosa PAO1
- Format: cell-based
- Test Context: Pseudomonas aeruginosa; P. aeruginosa PAO1, broth microdilution; read-out: MIC P. aeruginosa PAO1
Property Measured: MIC

>>> assay_value("CCN1CCN(C(=O)NC(C(=O)N[C@H]2Cc3c(F)cc(F)c(C(=O)O)c3OB2O)c2ccc(O)c(O)c2Cl)C(=O)C1=O (stereo partly drawn)")
"> 128 µg/mL"
>>> assay_value("CCN1C[C@@H](C)N(C(=O)NC(C(=O)N[C@H]2Cc3cccc(C(=O)O)c3OB2O)c2ncc(O)cc2F)C(=O)C1=O (stereo partly drawn)")
"> 128 µg/mL"
>>> assay_value("CCN1CCN(C(=O)NC(C(=O)N[C@H]2Cc3cccc(C(=O)O)c3OB2O)c2ccc(O)c(O)c2F)C(=O)C1=O (stereo partly drawn)")
"8 to 16 µg/mL"
>>> assay_value("CCN1CCN(C(=O)NC(C(=O)N[C@H]2Cc3cccc(C(=O)O)c3OB2O)c2ncc(O)cc2Cl)C(=O)C1=O (stereo partly drawn)")
"> 128 µg/mL"
>>> assay_value("CC(=O)NCCN1CCN(C(=O)NC(C(=O)N[C@H]2Cc3cccc(C(=O)O)c3OB2O)c2ccc(O)c(O)c2Cl)C(=O)C1=O (stereo partly drawn)")
"0.5 to 1 µg/mL"
>>> assay_value("CCN1CCN(C(=O)NC(C(=O)N[C@H]2Cc3ccc(F)c(C(=O)O)c3OB2O)c2ccc(S(N)(=O)=O)cc2)C(=O)C1=O (stereo partly drawn)")
"> 128 µg/mL"
>>> assay_value("CCN1C[C@H](C)N(C(=O)NC(C(=O)N[C@H]2Cc3ccc(F)c(C(=O)O)c3OB2O)c2ccc(O)c(O)c2Cl)C(=O)C1=O (stereo partly drawn)")
"2 to 4 µg/mL"
>>> assay_value("NS(=O)(=O)c1ccc(C(NC(=O)N2CCN(CCF)C(=O)C2=O)C(=O)N[C@H]2Cc3ccc(F)c(C(=O)O)c3OB2O)cc1 (stereo partly drawn)")
"> 128 µg/mL"
>>> assay_value("CCCN1CCN(C(=O)NC(C(=O)N[C@H]2Cc3ccc(F)c(C(=O)O)c3OB2O)c2ccc(O)c(O)c2Cl)C(=O)C1=O (stereo partly drawn)")
"0.5 to 1 µg/mL"

###

- Study Target: E. coli PBP3 (Escherichia coli (strain K12), UniProt P0AD68)
- Sequence (P0AD68 whole entry): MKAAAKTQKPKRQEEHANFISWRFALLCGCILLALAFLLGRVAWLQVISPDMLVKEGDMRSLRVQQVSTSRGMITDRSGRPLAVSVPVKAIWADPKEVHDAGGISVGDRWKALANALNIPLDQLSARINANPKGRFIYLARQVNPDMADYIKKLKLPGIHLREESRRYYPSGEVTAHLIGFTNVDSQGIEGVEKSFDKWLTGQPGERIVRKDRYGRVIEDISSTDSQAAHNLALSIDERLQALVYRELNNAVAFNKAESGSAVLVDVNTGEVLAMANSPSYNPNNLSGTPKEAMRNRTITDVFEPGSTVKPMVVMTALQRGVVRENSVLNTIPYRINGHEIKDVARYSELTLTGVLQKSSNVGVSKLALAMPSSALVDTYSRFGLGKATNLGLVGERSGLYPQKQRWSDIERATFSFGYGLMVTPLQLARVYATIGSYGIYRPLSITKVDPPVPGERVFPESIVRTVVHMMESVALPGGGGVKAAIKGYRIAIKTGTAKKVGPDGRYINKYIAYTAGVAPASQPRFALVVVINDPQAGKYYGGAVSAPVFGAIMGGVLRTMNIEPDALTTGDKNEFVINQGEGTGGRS
- Protocol Description: E. coli PBP3 Bocillin-FL fluorescence polarization competition binding assay
- Test Context: fluorescence polarization competition binding with Bocillin-FL; read-out: E. coli K12 PBP3 Potency
Reported values of EC50 for individual entries
Property Measured: EC50

>>> assay_value("O=C(O)c1cccc2c1OB(O)[C@@H](NC(=O)C(NC(=O)N1CCN(CCF)C(=O)C1=O)c1ccc(O)cn1)C2 (stereo partly drawn)")
"< 30 µM"
>>> assay_value("CCCN1CCN(C(=O)N[C@@H](C(=O)N[C@H]2Cc3ccc(F)c(C(=O)O)c3OB2O)[C@@H](C)O)C(=O)C1=O")
"> 500 µM"
>>> assay_value("CCN1C[C@H](C)N(C(=O)NC(C(=O)N[C@H]2Cc3ccc(F)c(C(=O)O)c3OB2O)c2ccc(O)c(O)c2Cl)C(=O)C1=O (stereo partly drawn)")
"< 30 µM"

###

Recorded measurements of MIC, one per entry
- Tested on: P. aeruginosa (ΔmexAB-oprM)
- Protocol Description: microbe, parasite or virus in culture
- Format: cell-based
- Test Context: Pseudomonas aeruginosa, read-out: MIC P. aeruginosa ΔmexAB-OprM
Property Measured: MIC

>>> assay_value("O=C(O)c1cccc2c1OB(O)[C@@H](NC(=O)C(NC(=O)N1C[C@H]3CCCN3C(=O)C1=O)c1ccc(O)c(O)c1Cl)C2 (stereo partly shown)")
"< 0.25 µg/mL"
>>> assay_value("CCN1C[C@H](C)N(C(=O)NC(C(=O)N[C@H]2Cc3ccc(F)c(C(=O)O)c3OB2O)c2ncc(O)cc2F)C(=O)C1=O (stereo partly shown)")
"32 to 64 µg/mL"
>>> assay_value("CCN1CCN(C(=O)N[C@@H](C(=O)N[C@H]2Cc3ccc(F)c(C(=O)O)c3OB2O)c2c(F)cc(O)c(O)c2Cl)C(=O)C1=O")
"< 0.25 µg/mL"
>>> assay_value("NS(=O)(=O)NCCN1CCN(C(=O)NC(C(=O)N[C@H]2Cc3ccc(F)c(C(=O)O)c3OB2O)c2ccc(O)c(O)c2Cl)C(=O)C1=O (stereo partly shown)")
"< 0.25 µg/mL"
>>> assay_value("NCCN1CCN(C(=O)N[C@@H](C(=O)N[C@H]2Cc3ccc(F)c(C(=O)O)c3OB2O)c2ncc(O)cc2F)C(=O)C1=O")
"2 to 4 µg/mL"
>>> assay_value("CCN1CCN(C(=O)NC(C(=O)N[C@H]2Cc3cccc(C(=O)O)c3OB2O)c2ncc(C(N)=O)cc2F)C(=O)C1=O (stereo partly shown)")
"32 to 64 µg/mL"
>>> assay_value("CCN1C[C@H](C)N(C(=O)NC(C(=O)N[C@H]2Cc3ccc(F)c(C(=O)O)c3OB2O)c2ccc(O)c(O)c2Cl)C(=O)C1=O (stereo partly shown)")
"< 0.25 µg/mL"
>>> assay_value("CNCCN1CCN(C(=O)NC(C(=O)N[C@H]2Cc3cccc(C(=O)O)c3OB2O)c2ccc(O)c(O)c2Cl)C(=O)C1=O (stereo partly shown)")
"< 0.25 µg/mL"
>>> assay_value("CCN1CCN(C(=O)NC(C(=O)N[C@H]2Cc3cccc(C(=O)O)c3OB2O)c2ccc(O)c(O)c2F)C(=O)C1=O (stereo partly shown)")
"0.5 to 1 µg/mL"
>>> assay_value("NCCN1CCN(C(=O)N[C@@H](C(=O)N[C@H]2Cc3ccc(F)c(C(=O)O)c3OB2O)c2ccc(O)c(O)c2Cl)C(=O)C1=O")
"< 0.25 µg/mL"

###

- Study Target: E. coli PBP3 (Escherichia coli (strain K12), UniProt P0AD68)
- Protocol Description: E. coli PBP3 Bocillin-FL fluorescence polarization competition binding assay
- Test Context: fluorescence polarization competition binding with Bocillin-FL; read-out: E. coli K12 PBP3 Potency
pEC50: −log10 of the molar value.
Property Measured: pEC50

>>> assay_value("CCN1CCN(C(=O)NC(CNS(N)(=O)=O)C(=O)N[C@H]2Cc3cccc(C(=O)O)c3OB2O)C(=O)C1=O (stereo partly shown)")
"< 3.30"
>>> assay_value("CCN1CCN(C(=O)NC(C(=O)N[C@H]2Cc3cccc(C(=O)O)c3OB2O)C(Cl)CCCO)C(=O)C1=O (stereo partly shown)")
"< 3.30"
>>> assay_value("CCN1CCN(C(=O)NC(C(=O)N[C@H]2Cc3cccc(C(=O)O)c3OB2O)c2cc(O)c(O)cc2F)C(=O)C1=O (stereo partly shown)")
"> 4.52"
>>> assay_value("CCN1CCN(C(=O)NC(C(=O)N[C@H]2Cc3cccc(C(=O)O)c3OB2O)c2ccc(N)cn2)C(=O)C1=O (stereo partly shown)")
"> 4.52"
>>> assay_value("CCN1CCN(C(=O)NC(C(=O)N[C@H]2Cc3cccc(C(=O)O)c3OB2O)c2ncc(O)cc2F)C(=O)C1=O (stereo partly shown)")
"> 4.52"
>>> assay_value("CCN1CCN(C(=O)N[C@H](C(=O)N[C@H]2Cc3ccc(F)c(C(=O)O)c3OB2O)[C@H](O)C(F)F)C(=O)C1=O")
"< 3.30"
>>> assay_value("CCN1CCN(C(=O)NC(C(=O)N[C@H]2Cc3cccc(C(=O)O)c3OB2O)c2cc(O)c(O)c(Cl)c2)C(=O)C1=O (stereo partly shown)")
"> 4.52"
>>> assay_value("CCN1CCN(C(=O)NC(C(=O)N[C@H]2Cc3cccc(C(=O)O)c3OB2O)c2ncc(O)cc2Cl)C(=O)C1=O (stereo partly shown)")
"> 4.52"
>>> assay_value("CCN1CCN(C(=O)NC(C(=O)N[C@H]2Cc3cccc(C(=O)O)c3OB2O)c2ccc(C)cn2)C(=O)C1=O (stereo partly shown)")
"< 3.30"
>>> assay_value("CCN1CCN(C(=O)NC(C(=O)N[C@H]2Cc3ccc(F)c(C(=O)O)c3OB2O)c2ncc(O)cc2Cl)C(=O)C1=O (stereo partly shown)")
"> 4.52"
>>> assay_value("CCN1CCN(C(=O)NC(C(=O)N[C@H]2Cc3cccc(C(=O)O)c3OB2O)c2ccc(C(=O)O)cc2)C(=O)C1=O (stereo partly shown)")
"> 4.52"
>>> assay_value("CCN1CCN(C(=O)NC(C(=O)N[C@H]2Cc3cccc(C(=O)O)c3OB2O)c2cccc(N)n2)C(=O)C1=O (stereo partly shown)")
"> 4.52"
>>> assay_value("NCCN1CCN(C(=O)N[C@@H](C(=O)N[C@H]2Cc3ccc(F)c(C(=O)O)c3OB2O)c2ncc(O)cc2F)C(=O)C1=O")
"> 4.52"
>>> assay_value("CCN1CCN(C(=O)N[C@H](CNS(C)(=O)=O)C(=O)N[C@H]2Cc3cccc(C(=O)O)c3OB2O)C(=O)C1=O")
"< 3.30"
>>> assay_value("CCN1CCN(C(=O)NC(C(=O)N[C@H]2Cc3cccc(C(=O)O)c3OB2O)c2ccc(S(C)(=O)=O)cc2)C(=O)C1=O (stereo partly shown)")
"> 4.52"
>>> assay_value("CCN1CCN(C(=O)NC(C(=O)N[C@H]2Cc3cccc(C(=O)O)c3OB2O)C(O)c2ccc(O)c(O)c2Cl)C(=O)C1=O (stereo partly shown)")
"< 3.30"
>>> assay_value("CCN1CCN(C(=O)N[C@@H](C(=O)N[C@H]2Cc3cccc(C(=O)O)c3OB2O)c2ncc(O)cc2F)C(=O)C1=O")
"> 4.52"
>>> assay_value("CS(=O)(=O)NCCN1CCN(C(=O)NC(C(=O)N[C@H]2Cc3cccc(C(=O)O)c3OB2O)c2ccc(O)c(O)c2Cl)C(=O)C1=O (stereo partly shown)")
"> 4.52"
>>> assay_value("O=C(O)c1cccc2c1OB(O)[C@@H](NC(=O)C(NC(=O)N1CCN(CCF)C(=O)C1=O)c1ccc(O)c(O)c1Cl)C2 (stereo partly shown)")
"> 4.52"

Source of measurements: patent US12173018B2
